Kindly state T/L (Tumor/Liver ratio) for each of the entries shown.
Test system: NCI-H460 tumor-bearing mice (lung cancer)
Assay: Biodistribution: lutetium accumulation in tumor, plasma and healthy tissues by ICP-MS
Type: in vivo
Details: 24 h
One number for each entry.

These recorded examples may help you get a feel for the data.
>>> endpoint_result("CCNC(=O)c1nnc(-c2cc(C(C)C)c(O)cc2O)n1-c1ccc(OC2CCN(C(=O)CCOCCOCCOCCOCCNC(=O)[C@H](CCCCNC(=O)CCCc3ccc(I)cc3)NC(=O)CN3CCN4CCN5CCN(CC3)CC(=O)[O][Lu]([O]C(=O)C4)[O]C(=O)C5)CC2)cc1")
4.98
>>> endpoint_result("CCNC(=O)c1nnc(-c2cc(C(C)C)c(O)cc2O)n1-c1ccc(OC2CCN(C(=O)CCOCCOCCOCCOCCOCCOCCOCCOCCOCCOCCOCCOCCNC(=O)CN3CCN4CCN5CCN(CC3)CC(=O)[O][Lu]([O]C(=O)C4)[O]C(=O)C5)CC2)cc1")
6.34

Give me T/L (Tumor/Liver ratio) for each of these compounds, listed below.
1. CCNC(=O)c1nnc(-c2cc(C(C)C)c(O)cc2O)n1-c1ccc(CN2CCN(C(=O)C[C@H](NC(=O)CCNC(=O)[C@@H](CO)NC(=O)[C@@H](CO)NC(=O)[C@@H](CO)NC(=O)CC[C@H](C(=O)O)N3CCN4CCN5CCN(CC3)CC(=O)[O][Lu]([O]C(=O)C5)[O]C(=O)C4)C(=O)N[C@H](C)C(=O)N3CCN(Cc4ccc(-n5c(C(=O)NCC)nnc5-c5cc(C(C)C)c(O)cc5O)cc4)CC3)CC2)cc1
2. CCNC(=O)c1nnc(-c2cc(C(C)C)c(O)cc2O)n1-c1ccc(CC2CCN(C(=O)CCOCCOCCOCCOCCNC(=O)CN3CCN4CCN5CCN(CC3)CC(=O)[O][Lu]([O]C(=O)C4)[O]C(=O)C5)CC2)cc1
3. CCNC(=O)c1nnc(-c2cc(C(C)C)c(O)cc2O)n1-c1ccc(CC2CCN(C(=O)CCOCCOCCOCCOCCOCCOCCOCCOCCOCCOCCOCCOCCNC(=O)[C@H](CCCCNC(=O)CCCc3ccc(I)cc3)NC(=O)CN3CCN4CCN5CCN(CC3)CC(=O)[O][Lu]([O]C(=O)C4)[O]C(=O)C5)CC2)cc1
4. CCNC(=O)c1nnc(-c2cc(C(C)C)c(O)cc2O)n1-c1ccc(OC2CCN(C(=O)CCOCCOCCOCCOCCOCCOCCOCCOCCOCCOCCOCCOCCNC(=O)[C@H](CCCCNC(=O)CCCc3ccc(I)cc3)NC(=O)CN3CCN4CCN5CCN(CC3)CC(=O)[O][Lu]([O]C(=O)C4)[O]C(=O)C5)CC2)cc1

Resp:
2.33
2.30
2.39
3.17
